Provenance of the data: patent US20120202856A1

biological target: canine TRPM8 (Canis lupus familiaris, UniProt Q1A7N1); construct: expressed in transfected cells; assay: In Vitro Canine TRPM8 Functional Assay (intracellular Ca2+ fluorescence, icilin activation, HEK293 cells); assay type: cell-based; conditions: HEK293, read-out: % Inh (%) @0.2 μM, in vitro TRP M8 Activity, 0.2 μM test compound; individually measured values
Sequence (Q1A7N1 1-1104): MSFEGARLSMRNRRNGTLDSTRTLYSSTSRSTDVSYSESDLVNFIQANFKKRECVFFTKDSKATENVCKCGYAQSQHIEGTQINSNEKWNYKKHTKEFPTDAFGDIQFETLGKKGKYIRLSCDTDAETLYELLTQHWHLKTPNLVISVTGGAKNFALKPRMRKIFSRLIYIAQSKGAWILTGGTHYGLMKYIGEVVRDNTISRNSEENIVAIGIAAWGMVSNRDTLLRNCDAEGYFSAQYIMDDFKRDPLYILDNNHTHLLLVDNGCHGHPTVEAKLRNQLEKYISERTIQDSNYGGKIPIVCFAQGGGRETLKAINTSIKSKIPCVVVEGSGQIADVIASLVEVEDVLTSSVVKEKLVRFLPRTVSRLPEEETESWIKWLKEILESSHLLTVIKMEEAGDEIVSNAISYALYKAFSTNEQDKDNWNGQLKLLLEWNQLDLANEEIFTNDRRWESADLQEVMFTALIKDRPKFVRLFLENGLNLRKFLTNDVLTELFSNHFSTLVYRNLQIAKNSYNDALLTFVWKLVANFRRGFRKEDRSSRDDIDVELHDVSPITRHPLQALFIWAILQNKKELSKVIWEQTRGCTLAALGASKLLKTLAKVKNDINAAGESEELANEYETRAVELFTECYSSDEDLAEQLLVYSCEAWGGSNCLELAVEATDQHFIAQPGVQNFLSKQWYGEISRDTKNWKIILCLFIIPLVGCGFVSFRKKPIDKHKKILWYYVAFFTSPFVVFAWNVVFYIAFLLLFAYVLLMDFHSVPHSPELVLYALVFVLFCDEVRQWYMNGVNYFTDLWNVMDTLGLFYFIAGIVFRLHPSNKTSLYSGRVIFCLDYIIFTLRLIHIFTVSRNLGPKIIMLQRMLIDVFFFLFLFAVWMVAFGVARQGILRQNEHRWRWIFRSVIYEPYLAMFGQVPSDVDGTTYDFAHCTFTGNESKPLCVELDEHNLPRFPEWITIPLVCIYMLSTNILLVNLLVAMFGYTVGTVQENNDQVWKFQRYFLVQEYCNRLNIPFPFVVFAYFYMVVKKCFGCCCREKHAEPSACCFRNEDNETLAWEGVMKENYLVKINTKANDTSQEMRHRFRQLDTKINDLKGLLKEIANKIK
Where a name gives a salt, the structure may show the parent alone.
Reported values of inhibition at 0.2 µM for individual entries
Write it as a number; the unit % goes unstated.

Consider the worked cases shown below.
Return reported inhibition at 0.2 µM. Input molecule: Cn1nc(C(C)(C)C)c(C#N)c1-c1nc2cc(-c3c(F)cccc3C(F)(F)F)cc(C(F)(F)F)c2[nH]1.[Na] [Compound 152, sodium salt] 100

Give reported inhibition at 0.2 µM value for Cn1nc(C(C)(C)C)c(Cl)c1-c1nc2cc(-c3c(F)cccc3C(F)(F)F)cc(Cl)c2[nH]1.[Na] [Compound 113, sodium salt] 99

State its inhibition at 0.2 µM for this molecule: CC(C)(C)c1cc(-c2nc3cc(-c4c(F)cccc4F)cc(C(F)(F)F)c3[nH]2)on1 [Compound 140, sodium salt] 100

Okay, next one:
// Input: CC(C)(C)c1cc(-c2nc3cc(-c4ccccc4OC(F)(F)F)cc(C(F)(F)F)c3[nH]2)on1 [Compound 143, sodium salt] . Output its inhibition at 0.2 µM only. 99

---

Recorded IC50, one value per entry.
molecular target: canine TRPM8 (Canis lupus familiaris); construct: expressed in transfected cells; assay: In Vitro Canine TRPM8 Functional Assay (intracellular Ca2+ fluorescence, icilin activation, HEK293 cells); type: cell-based; details: HEK293 cells expressing canine TRPM8, icilin activation; individually measured values (batches/salt forms); read-out: IC50 (nM), in vitro TRP M8 Activity
Counter-ions that a name gives are not always drawn.
Provide the reading as a plain figure in nM.

Provide IC50 value for the following compound: Cc1c(C(C)(C)C)nn(C)c1-c1nc2cc(-c3ccccc3C(F)(F)F)ccc2[nH]1 [Compound 76, sodium salt] 6

Please report the measured IC50 for `Cn1nc2c(c1-c1nc3cc(-c4ccccc4C(F)(F)F)cc(C(F)(F)F)c3[nH]1)CCC21CCCCC1` 10.6

Quick one: give measured IC50 for CC(C)(C)c1ncc(-c2nc3cc(-c4ccccc4C(F)(F)F)ccc3[nH]2)s1 [Compound 100, hydrochloride] 33.7

Retrieve IC50 measured for CC(C)(C)c1nnc(-c2nc3cc(-c4ccccc4C(F)(F)F)cc(C(F)(F)F)c3[nH]2)o1 [Compound 190, sodium salt] and print it. 30

Continuing:
Give reported IC50 value for FC(F)(F)c1ccccc1-c1ccc2[nH]c(-c3cc(C4CC4)no3)nc2c1 [Compound 16, sodium salt] 58

Assign IC50 to the following record: CC(C)c1cc(-c2nc3cc(-c4ccccc4)ccc3[nH]2)on1 [Compound 1, sodium salt] 111

Return reported IC50. Input compound: Cc1ccccc1-c1ccc2[nH]c(-c3cc(C(C)(C)C)no3)nc2c1 [Compound 65, trifluoroacetic acid salt] 15.5

Give recorded IC50. Cn1nc(C2(C)CC2)cc1-c1nc2cc(-c3ccccc3C(F)(F)F)ccc2[nH]1 [Compound 52, sodium salt] 17.6

Indicate the recorded IC50 value for this compound: Cc1c(C(C)(C)C)noc1-c1nc2cc(-c3ccccc3C(F)(F)F)ccc2[nH]1 [Compound 108, hydrochloride] 10.2

Give reported IC50 value for Cn1nc(C(C)(C)C)c(C(F)(F)F)c1-c1nc2cc(-c3ccccc3C(F)(F)F)cc(C(F)(F)F)c2[nH]1 [Compound 187, sodium salt] 14.7
